Reference for the values: patent US11932634B2

Biological target: human DGKα (Homo sapiens)
Construct: inferred from the same paragraph's 'obtained from Carna Biosciences')
Assay: DGKα Biochemical Activity Assay (ADP-Glo)
QUANTITY NAME: pIC50
Note: pIC50 values are expressed as the negative base-10 logarithm of concentration in M.

Briefly, pIC50 measured for O=c1nc(N(CC(F)F)c2ccnc(C#CC3(C(F)F)CC3)c2F)c2c(F)cccc2[nH]1 [Example 126] : 7.74

----------
Target: human DGKα (Homo sapiens)
Construct: inferred from the same paragraph's 'obtained from Carna Biosciences')
Test: DGKα Biochemical Activity Assay (ADP-Glo)
QUANTITY NAME: IC50 (nM)
The reply should contain only the number, in nM.

Would you please look over these solved cases?
1) [2H]C([2H])([2H])n1c(=O)nc(N2CCCc3c(C#CC4(C)CC4)cncc32)c2c(F)c(F)ccc21 [Example 159] : 2.03
2) CN(c1cccc(-c2ccc(N3CCCC3)nc2)c1)c1nc(=O)n(C)c2cc(Cl)ccc12 [Example 7] : 17.9
3) CC(C)(O)C#Cc1cc(F)cc(N(CC(F)F)c2nc(=O)[nH]c3c(Cl)cc(F)cc23)c1 [Example 114] : 445

# input for lookup
The recorded IC50 for entry CC(C)(C#N)C#Cc1cccc2c1COCCN2c1nc(=O)[nH]c2cccc(F)c12 [Example 110] equals 6.52

----------
Target: human DGKα (Homo sapiens, UniProt P23743)
Construct: inferred from the same paragraph's 'obtained from Carna Biosciences')
Sequence (P23743 whole entry): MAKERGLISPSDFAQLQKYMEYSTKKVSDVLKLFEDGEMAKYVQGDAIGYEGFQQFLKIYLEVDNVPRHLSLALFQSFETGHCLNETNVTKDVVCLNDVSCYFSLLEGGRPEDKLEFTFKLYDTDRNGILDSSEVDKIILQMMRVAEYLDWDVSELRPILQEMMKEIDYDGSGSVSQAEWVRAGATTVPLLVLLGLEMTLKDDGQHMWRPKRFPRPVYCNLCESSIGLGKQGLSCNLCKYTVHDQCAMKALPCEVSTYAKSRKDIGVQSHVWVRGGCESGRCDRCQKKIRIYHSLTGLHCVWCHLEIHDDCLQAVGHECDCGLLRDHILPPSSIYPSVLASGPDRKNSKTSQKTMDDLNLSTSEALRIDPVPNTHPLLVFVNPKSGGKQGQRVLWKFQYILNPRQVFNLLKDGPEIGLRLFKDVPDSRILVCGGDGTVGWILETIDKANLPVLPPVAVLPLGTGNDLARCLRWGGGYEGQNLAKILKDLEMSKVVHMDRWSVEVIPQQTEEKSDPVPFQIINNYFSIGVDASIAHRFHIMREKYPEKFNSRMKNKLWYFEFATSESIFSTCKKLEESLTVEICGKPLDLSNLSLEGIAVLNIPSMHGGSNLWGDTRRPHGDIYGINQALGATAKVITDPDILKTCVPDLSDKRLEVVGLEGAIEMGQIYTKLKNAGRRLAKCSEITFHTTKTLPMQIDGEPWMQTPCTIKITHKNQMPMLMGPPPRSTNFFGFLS
Experiment: DGKα Biochemical Activity Assay (ADP-Glo)
QUANTITY NAME: IC50 (nM)
# number only, unit nM dropped from output

Check out these entries, answers already filled in.
1. O=c1nc(N2CCCc3c(C#CC4(C(F)(F)F)CC4)cccc32)c2c(F)c(F)ccc2[nH]1 : 13.4
2. [2H]C([2H])([2H])n1c(=O)nc(N(CC(F)F)c2ccnc(C#CC3(C(F)(F)F)CC3)c2)c2c(F)c(F)ccc21 : 3.75

The value of IC50 measured for the compound [2H]C([2H])([2H])n1c(=O)nc(N(CC(F)F)c2ccnc(C#CC3(C(F)F)CC3)c2F)c2c(F)cccc21 turned out to be 2.82

// [2H]C([2H])([2H])n1c(=O)nc(N2CCOCc3c(C#CC4CCCN4C)cccc32)c2c(F)cccc21 (centres unmarked) : IC50 value = 18.5

Reported IC50 for [2H]C([2H])([2H])n1c(=O)nc(N2CCOCc3c(C#CC(C)(C)NC(=O)C4(C(F)(F)F)CC4)cccc32)c2c(F)cccc21 was 2.4

Noted for CC(F)(F)C1(C#Cc2cccc3c2COCCN3c2nc(=O)[nH]c3c(F)ccc(F)c23)CC1 : its IC50 reads 51.9

Documented IC50 of [2H]C([2H])([2H])n1c(=O)nc(N2CCCc3c2ccnc3C#CC2(C(F)(F)F)CC2)c2c(F)c(F)ccc21 : 6.28

For this compound ( [2H]C([2H])([2H])n1c(=O)nc(N(C)c2cc(F)cc(C#CC3(C(F)(F)F)CC3)c2)c2ccc(Cl)cc21 ), measured IC50 is 27.3

----------
Target: human DGKα (Homo sapiens)
Construct: inferred from the same paragraph's 'obtained from Carna Biosciences')
Assay: DGKα Biochemical Activity Assay (ADP-Glo)
In plain terms, low IC50, meaning strictly below 20 nM, gives YES, and everything else gives NO.

1. CC1(C#Cc2cncc3c2CCCCN3c2nc(=O)[nH]c3cccc(F)c23)CC1 [Example 152] : YES
2. [2H]C([2H])([2H])n1c(=O)nc(N(CC(F)F)c2ccnc(C#Cc3cnn(C)c3)c2)c2c(F)cccc21 [Example 137] : YES
3. CC(F)(F)C1(C#Cc2cncc3c2CCCN3c2nc(=O)[nH]c3ccc(F)c(F)c23)CC1 [Example 76] : YES
4. [2H]C([2H])([2H])n1c(=O)nc(N(CC(F)F)c2ccnc(C#Cc3cncn3C)c2)c2c(F)cccc21 [Example 136] : NO
5. CCn1c(=O)nc(N(CC(F)F)c2cc(F)cc(C#CC3(C(F)(F)F)CC3)c2)c2c(F)cccc21 [Example 36] : NO

Problem: In plain terms, does CC(C)(C#N)C#Cc1cccc2c1CCCCN2c1nc(=O)[nH]c2cccc(F)c12 [Example 143] come in under 20 nM for IC50?
Result: YES

Problem: Lab note: IC50 threshold 20 nM. Does this compound come in strictly under it? O=c1nc(N2CCCc3c(C#CC4(C(F)(F)F)CC4)cccc32)c2c(F)cccc2[nH]1 [Example 19]
Result: NO

Problem: Take the compound [2H]C([2H])([2H])n1c(=O)nc(N2CCOCc3c(C#CC4(C(F)(F)F)CCN(C5COC5)C4)cccc32)c2c(F)cccc21 (centres unmarked) [Example 171] and say whether its IC50 is less than 20 nM.
Result: YES

Problem: Quick check: IC50 of CN(c1cncc(C#CC2(C(F)(F)F)CC2)n1)c1nc(=O)[nH]c2cc(Cl)ccc12 [Example 13] under 20 nM?
Result: NO

Problem: Identify whether the compound Cn1c(=O)nc(N(CC(F)(F)F)c2cc(F)cc(C#CC3(C(F)(F)F)CC3)c2)c2cc(F)ccc21 [Example 30] records IC50 below 20 nM.
Result: NO

Problem: In the record for CC(C)(C#Cc1nccc2c1CCCN2c1nc(=O)[nH]c2cccc(F)c12)C(F)(F)F [Example 131] , is IC50 less than 20 nM?
Result: NO

Problem: Consider the compound [2H]C([2H])([2H])n1c(=O)nc(N2CCOCc3c(C#CC4(C(F)(F)F)CC4)cccc32)c2c(F)cccc21 [Example 100] . Is its IC50 strictly less than 20 nM?
Result: YES

Problem: # strict comparison: is reported IC50 < 20 nM? input = CC(C)(C#Cc1cccc2c1COCCN2c1nc(=O)[nH]c2cccc(F)c12)NC(=O)C1(C(F)(F)F)CC1 [Example 158]
Result: YES

Problem: Below 20 nM on IC50? Entry CC(C)(O)C#Cc1nccc(N(CC(F)F)c2nc(=O)[nH]c3cccc(F)c23)c1F [Example 113]
Result: YES

Problem: Please check: IC50 for [2H]C([2H])([2H])n1c(=O)nc(N(CC(F)F)c2cc(F)cc(C#CC(C)(C)O)c2)c2c(F)cccc21 [Example 38] , strictly under 20 nM or not?
Result: YES

----------
Target: human DGKα (Homo sapiens, UniProt P23743)
Construct: purchased Carna Biosciences'; inferred from the same paragraph's 'obtained from Carna Biosciences')
Experiment: DGKα Biochemical Activity Assay (ADP-Glo)
QUANTITY NAME: pIC50
Lab note: report pIC50 as minus log10 of the concentration in molar units, number only.

// pIC50 lookup, molecule = O=c1nc(N2CCCCc3c(C#CC4(C(F)(F)F)CC4)cncc32)c2cc(F)ccc2[nH]1 , result: 7.91

pIC50 in this record for O=c1nc(N(CC(F)F)c2cc(F)cc(-c3cnc(C4CC4)cn3)c2)c2c(F)c(F)ccc2[nH]1 : 7.87

Entry CC(C)(O)C#Cc1cccc2c1COCCN2c1nc(=O)[nH]c2c(F)ccc(F)c12 , pIC50 reported as 7.79

Entry O=c1nc(N2CCOCc3c(C#CC4(C(F)(F)F)CC4)cccc32)c2cc(F)cc(F)c2[nH]1 — recorded pIC50 = 7.83

----------
Listing of entries alongside the reported pIC50.
Target: human DGKα (Homo sapiens, UniProt P23743)
Construct: inferred from the same paragraph's 'obtained from Carna Biosciences')
Assay: DGKα Biochemical Activity Assay (ADP-Glo);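 note: recombinant enzyme converting diacylglycerol in lipid micelles with ATP, ADP formed detected by luminescence, IC50 from a four-parameter nonlinear fit, geometric mean across experiments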
// returns pIC50 (minus log10 of molar concentration), number only

Consider the reported pIC50 for these molecules:
1. CC(C)(O)C#Cc1cccc2c1COCCN2c1nc(=O)[nH]c2cccc(F)c12 : 8.02
2. O=c1nc(N2CCCc3c2ccnc3C#CC2(C(F)(F)F)CC2)c2c(F)c(F)ccc2[nH]1 : 8.39
3. O=c1nc(N(CC(F)F)c2cccc(C#CC3(C(F)(F)F)CC3)c2F)c2cc(F)ccc2[nH]1 : 7.20

Briefly, pIC50 measured for O=c1nc(N(CC(F)F)c2cc(F)cc(C#CC3(C(F)(F)F)CC3)c2)c2ccc(Cl)cc2n1CCO : 6.55

pIC50 for O=c1nc(N(CC(F)F)c2ccnc(C#CC3CC3)c2F)c2c(F)cccc2[nH]1 is 8.15

Record CC(C)(C#Cc1cccc(N(CC(F)F)c2nc(=O)[nH]c3cccc(F)c23)c1F)C(F)(F)F . Reported pIC50: 6.91

Reported pIC50 of CC(C)(C#N)C#Cc1cc(N(CC(F)F)c2nc(=O)[nH]c3ccc(F)c(F)c23)ccn1 : 7.85

What the record says about O=c1nc(N(CC(F)F)c2cc(F)cc(C#CC3(C(F)(F)F)CC3)c2)c2c(F)cccc2[nH]1 : pIC50 is 6.60
